- measurement target: T1, purified human CD117 ectodomain (R&D Systems #332-SR) (human, UniProt P10721 26-524)
- T1 construct: extracellular domain; Bought protein; also called c-kit; purified recombinant human CD117 ectodomain
- T1 sequence (P10721 26-524): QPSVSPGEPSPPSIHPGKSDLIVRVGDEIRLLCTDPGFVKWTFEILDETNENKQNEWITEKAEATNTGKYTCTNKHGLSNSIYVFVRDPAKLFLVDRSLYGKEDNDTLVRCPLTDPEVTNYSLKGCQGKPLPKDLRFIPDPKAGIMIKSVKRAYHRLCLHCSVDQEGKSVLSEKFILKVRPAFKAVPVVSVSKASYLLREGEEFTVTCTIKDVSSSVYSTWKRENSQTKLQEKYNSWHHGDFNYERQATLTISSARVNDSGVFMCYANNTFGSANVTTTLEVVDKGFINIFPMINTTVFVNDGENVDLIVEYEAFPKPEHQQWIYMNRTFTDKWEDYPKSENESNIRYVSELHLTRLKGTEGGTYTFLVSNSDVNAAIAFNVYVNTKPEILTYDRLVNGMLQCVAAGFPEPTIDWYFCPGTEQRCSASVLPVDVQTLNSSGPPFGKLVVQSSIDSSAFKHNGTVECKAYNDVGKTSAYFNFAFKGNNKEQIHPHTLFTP
- method description: BLI, purified IgG on sensor, soluble ectodomain; apparent monovalent
measurement kind: kon (M⁻¹ s⁻¹)
Please give a number only; it is taken to be in M⁻¹ s⁻¹.

Exercise: Report kon for HC-22/LC-22 (Ab22) (antibody, IgG1, V domains shown, From rat immunization/hybridoma; purified IgG in BLI; also called 022) VH: QVQLKESGPGLVQPSQTLSLTCTVSGFSLTSYLVHWVRQPPGKTLEWVGLMWNDGDTSYNSALKSRLSISRDTSKSQVFLKMHSLQAEDTATYYCARESNLGFTYWGHGTLVTVSS VL: DIQMTQSPASLSASLEEIVTITCKASQGIDDDLSWYQQKPGKSPQLLIYDVTRLADGVPSRFSGSRSGTQYSLKISRPQVADSGIYYCLQSYSTPYTFGAGTKLELK
Solution: 2.29e+06

Exercise: Please supply the value of reported kon for the item HC-9/LC-9 (Ab9) (antibody, IgG1, V domains shown, Purified IgG; also called 009) VH: QVQLVQSGAAVKKPGESLKISCKGSGYRFTTYWIGWVRQMPGKGLEWMGIIYPGDSDTRYSPSFQGQVTISAGKSISTAYLQWSSLKASDTAMYYCARHGRGYNGYEGAFDIWGQGTMVTVSS VL: AIRMTQSPSSLSASVGDRVTITCQASQGIRNDLGWYQQKPGKAPKLLIYDASNLETGVPSRFSGSGSGTDFTFTISSLQPEDIATYYCQQFNSYPLTFGGGTKLEIK
Solution: 283000
